target-of-assay: human glucagon receptor (human, UniProt P47871 26-477)
Sequence (P47871 26-477): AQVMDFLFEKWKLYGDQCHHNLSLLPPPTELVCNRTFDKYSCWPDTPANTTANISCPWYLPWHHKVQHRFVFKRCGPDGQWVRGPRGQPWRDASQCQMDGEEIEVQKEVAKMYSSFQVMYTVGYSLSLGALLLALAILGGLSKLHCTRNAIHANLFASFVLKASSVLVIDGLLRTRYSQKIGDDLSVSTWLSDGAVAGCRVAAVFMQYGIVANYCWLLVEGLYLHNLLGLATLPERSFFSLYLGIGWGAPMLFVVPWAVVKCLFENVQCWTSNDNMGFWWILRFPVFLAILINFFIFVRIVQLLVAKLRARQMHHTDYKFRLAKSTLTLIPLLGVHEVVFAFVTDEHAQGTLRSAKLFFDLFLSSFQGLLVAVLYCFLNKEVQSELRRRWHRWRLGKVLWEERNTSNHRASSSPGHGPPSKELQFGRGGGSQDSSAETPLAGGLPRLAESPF
test-description: cell-based or functional assay
measured-quantity: GCGR EC50 (nM) human; cAMP production (HitHunter cAMPXS), 20% human serum
Express your answer as a number followed by its unit.

binder | result
HXQGTXTSDKSKYLDERAAQDFVQWLLDT (D-Ser at 2; p-fluorophenylalanine (pFF) at 6; Lys 10 conjugated to γEγE-C16 (palmitoyl); C-terminal amide) [Co-agonist Peptide 9] | 0.05 nM
HXQGTFTSDXSKYLDARAAQDFVQWLLDT (D-Ser at 2; para-aminomethyl phenylalanine (pAF) at 10 conjugated to γEγE-C16 (palmitoyl); C-terminal amide) [Co-agonist Peptide 12] | 0.05 nM
HXQGTFTSDKSKYLDERAAQDFVQWLXDT (D-Ser at 2; Lys 10 conjugated to γEγE-C16 (palmitoyl); methionine sulfone at 27; C-terminal amide) [Co-agonist Peptide 10] | 0.02 nM

Okay, next one:
-- ask Suppose we examine the binder HXQGTFTSDKSKYLDERAAQDFVQWLLDT (D-Ser at 2; Lys 10 conjugated to γEγE-C16 (palmitoyl); C-terminal amide) [Comparator Co-agonist Peptide 6] ; what GCGR EC50 (nM) human; cAMP production (HitHunter cAMPXS), 20% human serum value has been reported?
-- reply 0.009 nM
